Each entry below lists one item and its recorded pEC50 value.
# target-of-assay: SARS-CoV-2 Mpro (Severe acute respiratory syndrome coronavirus 2 (2019-nCoV) (SARS-CoV-2), UniProt P0DTD1)
// pEC50 here means minus log10 of the molar concentration (mol/L)

Sample answers from the record:
N#Cc1cc(C(=O)N2CCOCC2)c(N2CC[C@@H](NC(=O)c3cc(=O)[nH]c4c(F)cccc34)C2)c(C2CC2)c1; 9.38
N#Cc1cc(C(=O)N2CCOCC2)c(N2CC[C@@H](NC(=O)c3c(F)c(=O)[nH]c4c(F)cccc34)C2)c(C(F)(F)F)c1; 9.32
C[C@@H]1C[C@@H](NC(=O)c2cc(=O)[nH]c3c(F)cccc23)CN1c1c(C(=O)N2CCOCC2)cc(C#N)cc1C(F)(F)F; 9.38

Now, please, on to the next molecule.
Q) Reported pEC50, molecule N#Cc1cc(C(=O)N2CCNC(=O)C2)c(N2CC[C@@H](NC(=O)c3cc(=O)[nH]c4c(F)cccc34)C2)c(C(F)(F)F)c1 : ____
A) 9.20

----------
# System: OC43 virus
# assay-text: microbe, parasite or virus in culture
# Format: cell-based
# condition-context: Betacoronavirus 1, OC43, Huh-7, read-out: Antiviral OC43 EC50 (μM)
measured-quantity: EC50

O=C(N[C@@H]1CCN(c2c(C(=O)N3CCOCC3)cc(Br)cc2C(F)(F)F)C1)c1cc(=O)[nH]c2c(F)c(F)ccc12 [Compound 51]; 0.0584 µM
Cc1cc(C(=O)N2CCOCC2)c(N2CC[C@@H](NC(=O)c3cc(=O)[nH]c4c(F)cccc34)C2)c(C2CC2)c1 [Compound 45]; < 0.03 µM

Now, please, on to the next compound.
Q) Reported EC50, compound O=C(N[C@@H]1CCN(c2c(C(=O)N3CCOCC3)cc(F)cc2C(F)(F)F)C1)c1cc(=O)[nH]c2c(F)cc(F)cc12 [Compound 38] : ____
A) 0.327 µM

----------
# target-of-assay: 229E Mpro (Human coronavirus 229E (HCoV-229E))
# Sequence (P0C6X1 2966-3267 limits assumed): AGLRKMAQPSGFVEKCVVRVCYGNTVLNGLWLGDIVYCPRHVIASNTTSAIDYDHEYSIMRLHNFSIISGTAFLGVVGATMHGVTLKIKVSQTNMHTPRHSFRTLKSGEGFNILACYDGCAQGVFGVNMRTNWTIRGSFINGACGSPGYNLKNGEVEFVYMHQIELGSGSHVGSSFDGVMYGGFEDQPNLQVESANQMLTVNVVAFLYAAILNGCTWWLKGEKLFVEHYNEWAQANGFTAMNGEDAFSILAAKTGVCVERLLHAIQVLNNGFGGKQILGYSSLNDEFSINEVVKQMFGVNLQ
Each entry below lists one item and its recorded pEC50 value.
// pEC50 here means minus log10 of the molar concentration (mol/L)

Sample answers from the record:
O=C(N[C@@H]1CCN(c2c(C(=O)N3CCOCC3)cc(Br)cc2C(F)(F)F)C1)c1cc(=O)[nH]c2c(Cl)cccc12; 7.61
O=C(N[C@@H]1CCN(c2c(C(=O)N3CCOCC3)cc(Br)cc2C(F)(F)F)C1)c1cc(=O)[nH]c2c(F)c(F)ccc12; 8.45
O=C(N[C@@H]1CCN(c2c(C(=O)N3CCOCC3)cc(Br)cc2C(F)(F)F)C1)c1c(F)c(=O)[nH]c2c(F)cccc12; 8.84
Cc1cc(C(=O)N2CCOCC2)c(N2C[C@H](NC(=O)c3cc(=O)[nH]c4c(F)cc(F)cc34)CC2=O)c(C2CC2)c1; 8.14
O=C(N[C@@H]1CCN(c2c(C(=O)N3CC(F)(F)C3)cc(Br)cc2C(F)(F)F)C1)c1cc(=O)[nH]c2c(F)cccc12; 7.47
O=C(N[C@@H]1CCN(c2c(C(=O)N3CCOCC3)cc(Br)cc2C(F)(F)F)C1)c1c(F)c(=O)[nH]c2c(F)c(F)ccc12; 8.35
N#Cc1cc(C(=O)N2CCOCC2)c(N2C[C@H](NC(=O)c3cc(=O)[nH]c4c(F)cc(F)cc34)CC2=O)c(C(F)(F)F)c1; 7.41
O=C(N[C@@H]1CCN(c2c(C(=O)N3CCOCC3)cc(Br)cc2C(F)(F)F)C1)c1cc(=O)[nH]c2c(F)cc(F)cc12; 8.33

Now, please, on to the next molecule.
Q) Provide the documented pEC50 with 229E Mpro (Human coronavirus 229E (HCoV-229E)) as the system for COc1cccc2[nH]c(=O)cc(C(=O)N[C@@H]3CCN(c4c(C5CC5)ccc(F)c4C(=O)N4CCOCC4)C3)c12
A) 8.70

----------
Each entry below lists one item and its recorded EC50 value.
# target-of-assay: MERS Mpro (Middle East respiratory syndrome-related coronavirus (isolate United Kingdom/H123990006/2012) (MERS-CoV) (Betacoronavirus England 1))
# Sequence (K9N7C7 3248-3553 limits assumed): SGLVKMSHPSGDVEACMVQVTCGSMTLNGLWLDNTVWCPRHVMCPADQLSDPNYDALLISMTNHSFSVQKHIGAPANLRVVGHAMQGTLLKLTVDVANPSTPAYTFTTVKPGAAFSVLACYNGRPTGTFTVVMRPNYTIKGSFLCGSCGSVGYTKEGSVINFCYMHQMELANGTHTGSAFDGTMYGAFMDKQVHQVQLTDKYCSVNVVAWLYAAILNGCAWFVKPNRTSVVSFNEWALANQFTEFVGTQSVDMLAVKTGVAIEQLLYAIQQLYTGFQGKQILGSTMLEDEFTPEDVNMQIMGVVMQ
# assay-text: biochemical
Number in nM, nothing else.

Sample answers from the record:
N#Cc1cc(C(=O)N2CCOCC2)c(N2CC[C@@H](NC(=O)c3cc(=O)[nH]c4c(F)cc(F)cc34)C2)c(C(F)(F)F)c1 [Compound 7]; 0.99
N#Cc1cc(C(=O)N2CCCC2)c(N2CC[C@@H](NC(=O)c3cc(=O)[nH]c4c(F)cccc34)C2)c(C(F)(F)F)c1 [Compound 20]; 1.68
O=C(N[C@@H]1CCN(c2c(C(=O)N3CCOCC3)cc(Br)cc2C(F)F)C1)c1c(F)c(=O)[nH]c2c(F)cccc12 [Compound 54]; 1.12
N#Cc1cc(C(=O)N2CCCCC2)c(N2CC[C@@H](NC(=O)c3cc(=O)[nH]c4c(F)cccc34)C2)c(C(F)(F)F)c1 [Compound 15]; 3.28
Cc1cc(C(=O)N2CCOCC2)c(N2C[C@H](NC(=O)c3cc(=O)[nH]c4c(F)cc(F)cc34)CC2=O)c(C2CC2)c1 [Compound 74]; 1.29

Q) Reported EC50, molecule C[C@@H]1C[C@@H](NC(=O)c2cc(=O)[nH]c3c(F)c(F)ccc23)CN1c1c(C(=O)N2CCOCC2)cc(C#N)cc1C(F)(F)F [Compound 31] : ____
A) 1.94

Q) Reported EC50, molecule O=C(N[C@@H]1CCN(c2c(C(=O)N3CC4CC(C3)O4)cc(Br)cc2C(F)(F)F)C1)c1cc(=O)[nH]c2c(F)cccc12 [Compound 65] : ____
A) 1.54

Q) Reported EC50, molecule COCCN1CCN(C(=O)c2cc(C#N)cc(C(F)(F)F)c2N2CC[C@@H](NC(=O)c3cc(=O)[nH]c4c(F)cccc34)C2)CC1 [Compound 19] : ____
A) 1.44

Q) Reported EC50, molecule COCCN1CCN(C(=O)c2cc(Br)cc(C(F)(F)F)c2N2CC[C@@H](NC(=O)c3cc(=O)[nH]c4c(F)cccc34)C2)CC1 [Compound 67] : ____
A) 1.5

Q) Reported EC50, molecule COc1cccc2[nH]c(=O)cc(C(=O)N[C@@H]3CCN(c4c(C5CC5)ccc(F)c4C(=O)N4CCOCC4)C3)c12 [Compound 78] : ____
A) 2.31

Q) Reported EC50, molecule COc1cccc2[nH]c(=O)cc(C(=O)N[C@H]3CN(c4c(C(=O)N5CCOCC5)cc(C)cc4C4CC4)C[C@@H]3OC)c12 [Compound 84] : ____
A) 2.44

Q) Reported EC50, molecule CO[C@H]1CN(c2c(C(=O)N3CCOCC3)cc(C#N)cc2C(F)(F)F)C[C@@H]1NC(=O)c1cc(=O)[nH]c2c(F)cccc12 [Compound 32] : ____
A) 1.06

Q) Reported EC50, molecule O=C(N[C@@H]1CCN(c2c(C(=O)N3CCOCC3)cc(Br)cc2C(F)(F)F)C1)c1cc(=O)[nH]c2c(F)c(F)ccc12 [Compound 51] : ____
A) 0.68

----------
# assay-text: in vitro
# condition-context: rat, microsomes, pH 7.4
Each entry below lists one item and its recorded CLint scaled value.
Number in mL/min/kg, nothing else.

O=C(N[C@@H]1CCN(c2c(OC(F)(F)F)cc(Br)cc2C(=O)N2CCOCC2)C1)c1cc(=O)[nH]c2c(F)cccc12 [Compound 42]; 482

Q) Reported CLint scaled, compound COc1cc(F)cc2[nH]c(=O)cc(C(=O)N[C@@H]3CCN(c4c(C(=O)N5CCOCC5)cc(Br)cc4C(F)(F)F)C3)c12 [Compound 57] : ____
A) 437

Q) Reported CLint scaled, compound O=C(N[C@@H]1CCN(c2c(C(=O)N3CCOCC3)cc(Br)cc2C(F)(F)F)C1)c1cc(=O)[nH]c2c(F)cc(F)cc12 [Compound 49] : ____
A) 573

Q) Reported CLint scaled, compound C[C@@H]1C[C@@H](NC(=O)c2cc(=O)[nH]c3c(F)c(F)ccc23)CN1c1c(C(=O)N2CCOCC2)cc(C#N)cc1C(F)(F)F [Compound 31] : ____
A) 457

Q) Reported CLint scaled, compound O=C(N[C@@H]1CCN(c2c(C(=O)N3CC4COCC4C3)cc(Br)cc2C(F)(F)F)C1)c1cc(=O)[nH]c2c(F)cccc12 (stereo partly drawn) [Compound 66] : ____
A) 607

----------
Each entry below lists one item and its recorded Papp value.
# assay-text: in vitro
# condition-context: PAMPA
Number in ×10⁻⁶ cm/s, nothing else.

Sample answers from the record:
O=C(N[C@@H]1CCN(c2c(C(=O)N3CCOCC3)cc(Br)cc2C(F)(F)F)C1)c1c(F)c(=O)[nH]c2c(F)cccc12; 17.9
O=C(N[C@@H]1CCN(c2c(C(=O)N3CCOCC3)cc(Cl)cc2C(F)(F)F)C1)c1c(F)c(=O)[nH]c2c(F)cccc12; 18.6
COc1cccc2[nH]c(=O)cc(C(=O)N[C@@H]3CCN(c4c(C(=O)N5CCOCC5)cc(C)cc4C4CC4)C3)c12; 2.81
O=C(N[C@@H]1CCN(c2c(OC(F)F)cc(Cl)cc2C(=O)N2CCOCC2)C1)c1cc(=O)[nH]c2c(F)cccc12; 12.7
N#Cc1cc(C(=O)N2CCOCC2)c(N2CC[C@@H](NC(=O)c3c(F)c(=O)[nH]c4ccccc34)C2)c(C(F)(F)F)c1; 3.22

Q) Reported Papp, compound O=C(N[C@@H]1CCN(c2c(C(=O)N3CCOCC3)cc(F)cc2C(F)(F)F)C1)c1cc(=O)[nH]c2c(F)cc(F)cc12 : ____
A) 14.5

Source: patent US20240158368A1
